target: human plasma kallikrein (Homo sapiens, UniProt P03952); construct: purchased Enzyme Research Laboratories HPKa 1303; test: Enzyme inhibition assay (fluorogenic substrate H-Pro-Phe-Arg-AMC); format: biochemical; conditions: Kallikrein inhibitory activity; 1 nM activated human kallikrein, 500 μM H-Pro-Phe-Arg-AMC, 1 hour room temperature; read-out: Avg. IC50
Sequence (P03952 20-390 limits assumed): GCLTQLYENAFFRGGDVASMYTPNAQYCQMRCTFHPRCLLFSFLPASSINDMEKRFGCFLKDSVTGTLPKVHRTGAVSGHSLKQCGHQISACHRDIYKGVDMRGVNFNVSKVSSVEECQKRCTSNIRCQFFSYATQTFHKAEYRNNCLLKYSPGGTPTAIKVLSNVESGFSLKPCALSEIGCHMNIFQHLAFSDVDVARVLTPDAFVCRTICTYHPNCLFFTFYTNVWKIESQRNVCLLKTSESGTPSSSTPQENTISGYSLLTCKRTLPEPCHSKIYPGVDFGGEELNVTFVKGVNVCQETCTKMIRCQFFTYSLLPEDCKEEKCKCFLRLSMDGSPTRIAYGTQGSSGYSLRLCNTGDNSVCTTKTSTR
Sequence (P03952 391-638 limits assumed): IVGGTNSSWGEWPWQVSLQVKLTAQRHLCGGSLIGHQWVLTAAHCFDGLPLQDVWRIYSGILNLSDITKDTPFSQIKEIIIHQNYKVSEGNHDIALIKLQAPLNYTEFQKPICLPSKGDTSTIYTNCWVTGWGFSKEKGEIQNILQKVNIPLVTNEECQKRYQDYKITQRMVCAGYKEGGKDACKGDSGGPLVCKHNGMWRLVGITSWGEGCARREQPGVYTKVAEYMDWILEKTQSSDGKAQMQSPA
pIC50: −log10 of the molar value. Numbered stars: 1 amine (or outer) side, 2 acyl side, 3 side chain; on linkers, the order of the positions; unused ones are H or OH. Bridge positions count the residues as written; N and C are the ends. Square brackets hold non-standard residues; d marks the D form. Peptide text beside a SMILES is read from it. mXylylene = c1cc(C[*:1])cc(C[*:2])c1; X2 = O=C(Cc1cccc(C[*:2])c1)[*:1]; Chg = N[C@H](C(=O)O)C1CCCCC1; Phg = N[C@H](C(=O)O)c1ccccc1; Tle = CC(C)(C)[C@H](N)C(=O)O; Nle = CCCC[C@H](N)C(=O)O
observed_property: pIC50

CC(C)(C)[C@H](NC(=O)[C@H](CCCNC(=N)N)NC(=O)[C@@H]1CSCc2cccc(c2)/C=C/CC(=O)N2CCC[C@H]2C(=O)N[C@@H](C2CCCCC2)C(=O)N1)C(N)=O: 5.84
CSCC[C@H](N)C(=O)N[C@H]1CSCc2cccc(c2)CSC[C@@H](C(=O)N[C@@H](CO)C(=O)N[C@@H](CCCNC(=N)N)C(N)=O)NC(=O)[C@H](CCC(=O)O)NC(=O)[C@H]([C@@H](C)O)NC(=O)[C@H](Cc2c[nH]c3ccccc23)NC(=O)[C@@H]2CCCN2C(=O)[C@H](CO)NC(=O)[C@H](Cc2c[nH]c3ccccc23)NC(=O)[C@H](Cc2ccc(O)cc2)NC(=O)[C@H](CC(N)=O)NC1=O [Compound R2003, [mXylyl(2,11)]MCNYWSPWTECSR-NH2] (H-MCNYWSPWTECSR-NH2; linker 2-11 via mXylylene): 8.51
CSCC[C@H](N)C(=O)N[C@@H](CS)C(=O)N[C@@H](CC(N)=O)C(=O)N[C@@H](Cc1ccc(O)cc1)C(=O)N[C@@H](Cc1c[nH]c2ccccc12)C(=O)N[C@@H](CO)C(=O)N1CCC[C@H]1C(=O)N[C@@H](Cc1c[nH]c2ccccc12)C(=O)N[C@H](C(=O)N[C@@H](CCC(=O)O)C(=O)N[C@@H](CS)C(=O)N[C@@H](CO)C(=O)N[C@@H](C)C(N)=O)[C@@H](C)O [Compound R2104, MCNYWSPWTECSA-NH2] (H-MCNYWSPWTECSA-NH2): 8.47
CCCC[C@@H]1NC(=O)[C@@H](NC(C)=O)CSCc2cccc(c2)CSC[C@@H](C(=O)N[C@@H](CCCNC(=N)N)C(=O)N[C@H](C(N)=O)C(C)(C)C)NC(=O)[C@H](c2ccccc2)NC(=O)[C@H](CO)NC1=O [Compound R2065, [mXylyl(1,5)]Ac-C-Nle-S-Phg-CR-Tbg-NH2] (Ac-C[Nle]S[Phg]CR[Tle]-NH2; linker 1-5 via mXylylene): 8.21

a: CC(C)(C)[C@H](NC(=O)[C@H](CCCNC(=N)N)NC(=O)[C@@H]1CSCc2cccc(c2)CC(=O)NCC(=O)N2CCC[C@H]2C(=O)N[C@@H](C2CCCCC2)C(=O)N1)C(N)=O [Compound R2265] (GP[Chg]CR[Tle]-NH2; linker N-4 via X2)
b: CC(C)(C)[C@H](NC(=O)[C@H](CCCNC(=N)N)NC(=O)[C@@H]1CSCc2cccc(c2)/C=C/CCC(=O)N2CCC[C@H]2C(=O)N[C@@H](C2CCCCC2)C(=O)N1)C(N)=O
Kindly identify the item with the lower pIC50 figure among these two: a and b Could you answer with the label of the item you picked?
b
(b: 5.33, a: 7.41)
